target: IKZF3 Aiolos (Homo sapiens, UniProt Q96SW2+Q9UKT9); test: Human Regulatory T Cell Degradation Assay; type: cell-based; parameters: Foxp3-BV421, HELIOS-PE-Cy7, EOS-PE, IKAROS-PECF594, AIOLOS-AF647; endogenous in cells; host or cells: human PBMC from healthy donors (CD8+ T cells gated by flow cytometry); conditions: human regulatory T cells, 20 hours
Sequence (Q9UKT9 whole entry): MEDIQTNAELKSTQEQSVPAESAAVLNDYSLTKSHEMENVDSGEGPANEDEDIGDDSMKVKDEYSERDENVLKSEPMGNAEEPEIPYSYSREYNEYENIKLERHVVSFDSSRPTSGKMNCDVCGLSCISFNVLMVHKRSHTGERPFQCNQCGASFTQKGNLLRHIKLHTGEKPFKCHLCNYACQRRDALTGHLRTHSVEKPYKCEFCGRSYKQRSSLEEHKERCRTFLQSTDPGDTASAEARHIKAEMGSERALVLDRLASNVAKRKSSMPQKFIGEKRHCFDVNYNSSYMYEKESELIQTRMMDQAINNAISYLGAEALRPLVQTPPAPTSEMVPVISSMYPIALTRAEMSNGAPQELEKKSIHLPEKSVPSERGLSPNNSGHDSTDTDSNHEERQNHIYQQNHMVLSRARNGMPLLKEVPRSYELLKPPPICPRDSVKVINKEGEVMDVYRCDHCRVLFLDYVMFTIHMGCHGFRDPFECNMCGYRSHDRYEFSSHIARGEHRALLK
Sequence (Q96SW2 whole entry): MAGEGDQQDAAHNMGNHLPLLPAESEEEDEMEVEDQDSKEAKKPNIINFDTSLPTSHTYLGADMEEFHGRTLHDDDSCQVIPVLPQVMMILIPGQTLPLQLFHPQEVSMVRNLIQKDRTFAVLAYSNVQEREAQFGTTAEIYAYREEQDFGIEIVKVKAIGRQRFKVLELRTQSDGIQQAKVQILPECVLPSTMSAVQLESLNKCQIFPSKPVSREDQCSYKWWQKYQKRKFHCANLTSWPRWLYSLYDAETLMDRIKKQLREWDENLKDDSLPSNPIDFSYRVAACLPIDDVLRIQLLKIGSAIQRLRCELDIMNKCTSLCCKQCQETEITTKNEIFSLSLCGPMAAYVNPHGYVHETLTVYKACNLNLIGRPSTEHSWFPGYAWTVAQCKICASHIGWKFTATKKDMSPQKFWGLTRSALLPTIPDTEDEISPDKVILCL
Sequence (Q16531 whole entry partner): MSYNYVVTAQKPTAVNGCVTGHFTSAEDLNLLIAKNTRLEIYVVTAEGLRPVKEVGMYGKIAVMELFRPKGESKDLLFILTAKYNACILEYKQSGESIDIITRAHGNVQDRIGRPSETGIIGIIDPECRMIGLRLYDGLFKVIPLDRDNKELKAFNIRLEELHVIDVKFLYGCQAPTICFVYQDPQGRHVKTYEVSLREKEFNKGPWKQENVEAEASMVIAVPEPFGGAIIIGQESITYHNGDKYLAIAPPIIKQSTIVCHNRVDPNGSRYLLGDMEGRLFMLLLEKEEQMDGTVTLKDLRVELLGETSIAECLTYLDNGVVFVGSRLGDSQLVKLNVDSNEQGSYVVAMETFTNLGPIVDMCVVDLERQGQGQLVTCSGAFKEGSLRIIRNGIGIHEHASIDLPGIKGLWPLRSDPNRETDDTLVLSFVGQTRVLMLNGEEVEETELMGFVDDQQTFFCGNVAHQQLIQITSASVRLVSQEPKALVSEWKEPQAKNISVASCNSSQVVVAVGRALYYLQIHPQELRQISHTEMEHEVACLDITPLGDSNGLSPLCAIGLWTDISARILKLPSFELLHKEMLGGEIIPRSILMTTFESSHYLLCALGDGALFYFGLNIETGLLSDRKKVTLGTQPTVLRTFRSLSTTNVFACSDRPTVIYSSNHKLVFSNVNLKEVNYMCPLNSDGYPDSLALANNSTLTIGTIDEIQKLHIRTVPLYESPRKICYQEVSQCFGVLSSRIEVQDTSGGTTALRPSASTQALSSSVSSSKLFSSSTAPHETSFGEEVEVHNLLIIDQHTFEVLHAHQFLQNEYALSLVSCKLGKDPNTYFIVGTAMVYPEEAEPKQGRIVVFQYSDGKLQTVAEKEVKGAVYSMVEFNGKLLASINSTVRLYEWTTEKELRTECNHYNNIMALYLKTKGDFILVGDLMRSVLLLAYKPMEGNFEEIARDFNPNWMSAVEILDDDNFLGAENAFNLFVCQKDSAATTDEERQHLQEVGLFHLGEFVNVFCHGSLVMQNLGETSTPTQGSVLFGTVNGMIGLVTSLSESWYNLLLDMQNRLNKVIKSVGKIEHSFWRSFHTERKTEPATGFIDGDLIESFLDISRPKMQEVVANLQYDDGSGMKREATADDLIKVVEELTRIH
readoutName: IKZF3 Aiolos max % deg. observed (%)

Cc1cc(-c2ccc(-c3cn(C4CCC(=O)NC4=O)c(=O)o3)c(F)c2)nc(N)c1NCC1CCOCC1 (centres unmarked) :: 25
CO[C@H]1C[C@H](Oc2c(C)cc(-c3ccc(-c4cn(C5CCC(=O)NC5=O)c(=O)o4)c(F)c3)nc2N)C1 (relative stereo) :: 25
COC1CCN(Cc2ccc(-c3ccc(-c4cn(C5CCC(=O)NC5=O)c(=O)o4)c(F)c3)nc2N)CC1 (centres unmarked) :: 35
CC1(C)Cc2cc(-c3ccc(-c4cn(C5CCC(=O)NC5=O)c(=O)o4)c(F)c3)nc(N)c2O1 (centres unmarked) :: 22
Cc1cc(-c2ccc(-c3cn(C4CCC(=O)NC4=O)c(=O)o3)c(F)c2)nc(N)c1COC1CCOCC1 (centres unmarked) :: 29

* * *

molecular target: IKZF4 Eos (Homo sapiens, UniProt Q96SW2+Q9H2S9); construct: endogenous in cells; host or cells: primary human CD4+CD127lowCD25+ Treg cells from healthy leukopaks; test: Human Regulatory T Cell Reprogramming Assay; type: cell-based; settings: Table E summary; Human Regulatory T Cell Reprogramming Assay (C-1)
Sequence (Q9H2S9 whole entry): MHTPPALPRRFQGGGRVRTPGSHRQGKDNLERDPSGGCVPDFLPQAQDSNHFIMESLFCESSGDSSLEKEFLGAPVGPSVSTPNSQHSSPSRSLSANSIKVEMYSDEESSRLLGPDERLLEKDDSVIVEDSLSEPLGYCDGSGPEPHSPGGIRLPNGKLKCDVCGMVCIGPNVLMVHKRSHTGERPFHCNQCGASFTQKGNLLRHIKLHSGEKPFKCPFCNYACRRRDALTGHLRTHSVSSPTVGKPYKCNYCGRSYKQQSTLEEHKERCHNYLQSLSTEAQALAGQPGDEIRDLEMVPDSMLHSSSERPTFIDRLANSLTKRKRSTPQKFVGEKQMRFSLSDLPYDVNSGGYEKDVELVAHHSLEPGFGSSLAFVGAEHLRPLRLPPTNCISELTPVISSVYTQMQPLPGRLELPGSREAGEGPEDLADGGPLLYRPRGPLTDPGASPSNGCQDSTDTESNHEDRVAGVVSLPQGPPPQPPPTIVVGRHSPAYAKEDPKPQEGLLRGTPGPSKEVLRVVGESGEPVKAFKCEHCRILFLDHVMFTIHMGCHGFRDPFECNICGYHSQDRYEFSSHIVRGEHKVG
Sequence (Q96SW2 whole entry): as the sequence (Q96SW2 whole entry) above
Sequence (Q16531 whole entry partner): as the sequence (Q16531 whole entry partner) above
Assign class by IKZF4*** Eos max % or deg. observed: not lower than 70% means Condition met; lower than 70% means Condition not met.

CC1(C)Cc2cc(-c3ccc(-c4cn(C5CCC(=O)NC5=O)c(=O)o4)c(F)c3)nc(N)c2O1 (stereo not shown) [Example 1] :: Condition met
Cc1cc(-c2ccc(-c3cn(C4CCC(=O)NC4=O)c(=O)o3)c(F)c2)nc(N)c1NCC1CCOCC1 (stereo not shown) [Example 3] :: Condition met
Cc1cc(-c2ccc(-c3cn(C4CCC(=O)NC4=O)c(=O)o3)c(F)c2)nc(N)c1COC1CCOCC1 (stereo not shown) [Example 5] :: Condition not met
COC1CCN(Cc2ccc(-c3ccc(-c4cn(C5CCC(=O)NC5=O)c(=O)o4)c(F)c3)nc2N)CC1 (stereo not shown) [Example 4] :: Condition met
O=C1CCC(n2cc(-c3ccc(Br)cc3F)oc2=O)C(=O)N1 (stereo not shown) [Comparative Compound B, reference compound] :: Condition not met
O=C1CCC(n2cc(-c3ccccc3)oc2=O)C(=O)N1 (stereo not shown) [Comparative Compound A, reference compound] :: Condition not met

* * *

target: IKZF4 Eos (Homo sapiens, UniProt Q96SW2+Q9H2S9); construct: endogenous in cells; host or cells: primary human CD4+CD127lowCD25+ Treg cells from healthy leukopaks; experiment: Human Regulatory T Cell Reprogramming Assay; assay type: cell-based; conditions: CD4+CD127lowCD25+ Treg cells, 12-13 days; vs DMSO alone
readoutName: DC50

O=C1CCC(n2cc(-c3ccc(Br)cc3F)oc2=O)C(=O)N1 (stereo not shown) [Comparative Compound B, reference compound] :: > 1000 nM
Cc1cc(-c2ccc(-c3cn(C4CCC(=O)NC4=O)c(=O)o3)c(F)c2)nc(N)c1NCC1CCOCC1 (stereo not shown) [Example 3] :: 4 nM
O=C1CCC(n2cc(-c3ccccc3)oc2=O)C(=O)N1 (stereo not shown) [Comparative Compound A, reference compound] :: > 1000 nM
CO[C@H]1C[C@H](Oc2c(C)cc(-c3ccc(-c4cn(C5CCC(=O)NC5=O)c(=O)o4)c(F)c3)nc2N)C1 (relative stereo) [Example 2] :: 3 nM
Cc1cc(-c2ccc(-c3cn(C4CCC(=O)NC4=O)c(=O)o3)c(F)c2)nc(N)c1COC1CCOCC1 (stereo not shown) [Example 5] :: 7 nM
CC1(C)Cc2cc(-c3ccc(-c4cn(C5CCC(=O)NC5=O)c(=O)o4)c(F)c3)nc(N)c2O1 (stereo not shown) [Example 1] :: 2 nM
COC1CCN(Cc2ccc(-c3ccc(-c4cn(C5CCC(=O)NC5=O)c(=O)o4)c(F)c3)nc2N)CC1 (stereo not shown) [Example 4] :: 4 nM

* * *

biological target: IKZF1 Ikaros (Homo sapiens, UniProt Q13422+Q96SW2); assay: Human CD8+ T Cell Reprogramming Assay (method headed Human CD8+ T Cell Degradation Assay); assay type: cell-based; parameters: Foxp3-BV421, HELIOS-PE-Cy7, EOS-PE, IKAROS-PECF594, AIOLOS-AF647; endogenous in cells; host or cells: human PBMC from healthy donors (CD8+ T cells gated by flow cytometry); conditions: Table E summary; Human CD8+ T Cell Reprogramming Assay (D-1)
Sequence (Q13422 whole entry): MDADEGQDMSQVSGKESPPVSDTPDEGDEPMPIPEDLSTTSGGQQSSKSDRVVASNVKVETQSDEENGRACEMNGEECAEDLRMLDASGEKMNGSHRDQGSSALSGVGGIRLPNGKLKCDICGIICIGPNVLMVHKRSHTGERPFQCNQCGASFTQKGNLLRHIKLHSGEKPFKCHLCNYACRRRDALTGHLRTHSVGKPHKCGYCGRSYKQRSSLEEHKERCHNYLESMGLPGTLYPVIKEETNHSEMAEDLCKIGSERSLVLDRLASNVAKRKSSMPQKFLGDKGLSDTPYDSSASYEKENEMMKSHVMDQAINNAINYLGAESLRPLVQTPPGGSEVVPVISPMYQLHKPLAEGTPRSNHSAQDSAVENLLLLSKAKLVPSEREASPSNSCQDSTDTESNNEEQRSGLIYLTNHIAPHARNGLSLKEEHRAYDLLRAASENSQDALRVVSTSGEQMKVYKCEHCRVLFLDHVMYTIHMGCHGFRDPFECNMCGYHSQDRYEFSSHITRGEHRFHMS
Sequence (Q96SW2 whole entry): as the sequence (Q96SW2 whole entry) above
Sequence (Q16531 whole entry partner): as the sequence (Q16531 whole entry partner) above
readoutName: IKZF1* Ikaros max % deg. observed (%)

COC1CCN(Cc2ccc(-c3ccc(-c4cn(C5CCC(=O)NC5=O)c(=O)o4)c(F)c3)nc2N)CC1 (stereo not shown) :: 80
Cc1cc(-c2ccc(-c3cn(C4CCC(=O)NC4=O)c(=O)o3)c(F)c2)nc(N)c1NCC1CCOCC1 (stereo not shown) :: 67
CO[C@H]1C[C@H](Oc2c(C)cc(-c3ccc(-c4cn(C5CCC(=O)NC5=O)c(=O)o4)c(F)c3)nc2N)C1 (relative stereo) :: 53
O=C1CCC(n2cc(-c3ccc(Br)cc3F)oc2=O)C(=O)N1 (stereo not shown) [Comparative Compound B, reference compound] :: 17
Cc1cc(-c2ccc(-c3cn(C4CCC(=O)NC4=O)c(=O)o3)c(F)c2)nc(N)c1COC1CCOCC1 (stereo not shown) :: 56
CC1(C)Cc2cc(-c3ccc(-c4cn(C5CCC(=O)NC5=O)c(=O)o4)c(F)c3)nc(N)c2O1 (stereo not shown) :: 76
O=C1CCC(n2cc(-c3ccccc3)oc2=O)C(=O)N1 (stereo not shown) [Comparative Compound A, reference compound] :: 74

* * *

molecular target: IKZF4 Eos (Homo sapiens, UniProt Q96SW2+Q9H2S9); construct: endogenous in cells; host or cells: primary human CD4+CD127lowCD25+ Treg cells from healthy leukopaks; assay: Human Regulatory T Cell Degradation Assay; type: cell-based; details: human regulatory T cells, 20 hours
Examples of compounds with documented IKZF4 Eos max % deg. observed follow.
readoutName: IKZF4 Eos max % deg. observed (%)

CO[C@H]1C[C@H](Oc2c(C)cc(-c3ccc(-c4cn(C5CCC(=O)NC5=O)c(=O)o4)c(F)c3)nc2N)C1 (relative stereo) :: 62
Cc1cc(-c2ccc(-c3cn(C4CCC(=O)NC4=O)c(=O)o3)c(F)c2)nc(N)c1NCC1CCOCC1 (centres unmarked) :: 59
CC1(C)Cc2cc(-c3ccc(-c4cn(C5CCC(=O)NC5=O)c(=O)o4)c(F)c3)nc(N)c2O1 (centres unmarked) :: 56
Cc1cc(-c2ccc(-c3cn(C4CCC(=O)NC4=O)c(=O)o3)c(F)c2)nc(N)c1COC1CCOCC1 (centres unmarked) :: 67
COC1CCN(Cc2ccc(-c3ccc(-c4cn(C5CCC(=O)NC5=O)c(=O)o4)c(F)c3)nc2N)CC1 (centres unmarked) :: 62

* * *

target: IKZF3 Aiolos (Homo sapiens, UniProt Q96SW2+Q9UKT9); experiment: Human CD8+ T Cell Reprogramming Assay (method headed Human CD8+ T Cell Degradation Assay); format: cell-based; design: Foxp3-BV421, HELIOS-PE-Cy7, EOS-PE, IKAROS-PECF594, AIOLOS-AF647; endogenous in cells; host or cells: human PBMC from healthy donors (CD8+ T cells gated by flow cytometry); conditions: Table E summary; Human CD8+ T Cell Reprogramming Assay (D-1)
readoutName: IKZF3* Aiolos max % deg. observed (%)

O=C1CCC(n2cc(-c3ccccc3)oc2=O)C(=O)N1 (stereo not shown) [Comparative Compound A, reference compound] :: 80
Cc1cc(-c2ccc(-c3cn(C4CCC(=O)NC4=O)c(=O)o3)c(F)c2)nc(N)c1COC1CCOCC1 (stereo not shown) [Example 5] :: 72
O=C1CCC(n2cc(-c3ccc(Br)cc3F)oc2=O)C(=O)N1 (stereo not shown) [Comparative Compound B, reference compound] :: 0
CC1(C)Cc2cc(-c3ccc(-c4cn(C5CCC(=O)NC5=O)c(=O)o4)c(F)c3)nc(N)c2O1 (stereo not shown) [Example 1] :: 76
COC1CCN(Cc2ccc(-c3ccc(-c4cn(C5CCC(=O)NC5=O)c(=O)o4)c(F)c3)nc2N)CC1 (stereo not shown) [Example 4] :: 77
CO[C@H]1C[C@H](Oc2c(C)cc(-c3ccc(-c4cn(C5CCC(=O)NC5=O)c(=O)o4)c(F)c3)nc2N)C1 (relative stereo) [Example 2] :: 58
Cc1cc(-c2ccc(-c3cn(C4CCC(=O)NC4=O)c(=O)o3)c(F)c2)nc(N)c1NCC1CCOCC1 (stereo not shown) [Example 3] :: 67

* * *

biological target: IKZF1 Ikaros (Homo sapiens, UniProt Q13422+Q96SW2); assay: Human Regulatory T Cell Degradation Assay; type: cell-based; design: Foxp3-BV421, HELIOS-PE-Cy7, EOS-PE, IKAROS-PECF594, AIOLOS-AF647; endogenous in cells; host or cells: human PBMC from healthy donors (CD8+ T cells gated by flow cytometry); settings: human regulatory T cells, 20 hours
readoutName: IKZF1 Ikaros max % deg. observed (%)

Cc1cc(-c2ccc(-c3cn(C4CCC(=O)NC4=O)c(=O)o3)c(F)c2)nc(N)c1COC1CCOCC1 (centres unmarked) :: 52
CC1(C)Cc2cc(-c3ccc(-c4cn(C5CCC(=O)NC5=O)c(=O)o4)c(F)c3)nc(N)c2O1 (centres unmarked) :: 51
Cc1cc(-c2ccc(-c3cn(C4CCC(=O)NC4=O)c(=O)o3)c(F)c2)nc(N)c1NCC1CCOCC1 (centres unmarked) :: 58
COC1CCN(Cc2ccc(-c3ccc(-c4cn(C5CCC(=O)NC5=O)c(=O)o4)c(F)c3)nc2N)CC1 (centres unmarked) :: 67
CO[C@H]1C[C@H](Oc2c(C)cc(-c3ccc(-c4cn(C5CCC(=O)NC5=O)c(=O)o4)c(F)c3)nc2N)C1 (relative stereo) :: 56

These data points were gathered from patent EP4568957B1.
